biological target: ZFP SBS#1117 (synthetic); assay: EMSA; conditions: tags: MBP fusion
Sequence (chain, as listed by the source): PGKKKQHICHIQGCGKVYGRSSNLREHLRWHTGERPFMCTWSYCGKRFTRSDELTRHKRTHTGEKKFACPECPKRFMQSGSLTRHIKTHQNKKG
pKd: −log10 of the molar value.
measure: pKd

{"binder": "GCAGCGCAG (dsDNA) DNA 1: GCAGCGCAG DNA 2: CTGCGCTGC", "measured-value": 8.55}
